B1: library; numbered along this chain (parent)
chain: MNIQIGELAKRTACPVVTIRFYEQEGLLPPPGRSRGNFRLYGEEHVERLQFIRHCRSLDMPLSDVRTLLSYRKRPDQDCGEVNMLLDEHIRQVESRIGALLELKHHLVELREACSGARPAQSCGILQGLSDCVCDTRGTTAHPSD

Variants of: B1
method: sfGFP reporter fluorescence (15 h) (µM FITC); higher = stronger transcriptional activation
measurement-parameters: library round: Round 0; ligand: 1 µM Pb
measured-attribute: sfGFP reporter fluorescence
Answer field: number only, no words.

Recorded results for 8 variants are shown here.
- L27T: 0.0603
- S34A: 0.0654
- D64K L107C: 3.75
- V82H: 0.0597
- P143W: 0.0861
- E43R: 0.111
- R39S: 0.0603
- D135A: 0.0834

Q) Sample "D131L" — what was its sfGFP reporter fluorescence?
A) 0.119

Q) And then "E112M" , what is it?
A) 0.0938
